Source: the supplement of paper PMC12667976

B1: library; numbered along this chain (parent)
chain: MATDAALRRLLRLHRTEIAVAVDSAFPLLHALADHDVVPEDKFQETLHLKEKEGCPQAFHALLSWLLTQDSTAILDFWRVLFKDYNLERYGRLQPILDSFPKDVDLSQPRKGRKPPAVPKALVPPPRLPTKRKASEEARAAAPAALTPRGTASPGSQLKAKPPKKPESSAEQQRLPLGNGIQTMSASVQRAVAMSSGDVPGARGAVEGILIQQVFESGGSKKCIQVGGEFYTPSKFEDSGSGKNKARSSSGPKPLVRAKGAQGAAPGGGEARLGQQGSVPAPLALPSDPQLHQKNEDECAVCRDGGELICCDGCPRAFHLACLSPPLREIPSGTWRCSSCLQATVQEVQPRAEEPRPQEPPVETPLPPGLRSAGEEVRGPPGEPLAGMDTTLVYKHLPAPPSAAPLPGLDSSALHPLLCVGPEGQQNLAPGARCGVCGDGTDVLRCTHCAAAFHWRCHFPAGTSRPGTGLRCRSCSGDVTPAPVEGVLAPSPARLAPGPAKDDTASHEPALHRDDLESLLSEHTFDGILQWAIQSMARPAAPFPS

Variants of: B1
Assay: AIRE transcriptional activation functional score (insulin promoter-GFP; nonsense median 0, synonymous median 1) (normalised score); higher = higher AIRE activity (more reporter activation)
Details: with insulin promoter-GFP reporter in HEK293
Quick reference: AIRE transcriptional activation functional score of the listed items.
Reply briefly: the number, and no unit.

mutationNotation | assayResult
K164H | 1.27
S476F | 1.21
P163L | 0.899
Q44I | 0.916
P460Q | 0.787
P331T | 0.972

stdin: Given the entry "G204C" , report its measured AIRE transcriptional activation functional score.
stdout: 0.575

stdin: Given the entry "V80M" , report its measured AIRE transcriptional activation functional score.
stdout: 0.629

stdin: Given the entry "E522S" , report its measured AIRE transcriptional activation functional score.
stdout: 0.0236
